- target.system: T1, IL-1beta (UniProt P01584 117-269)
- T1 construct: also called IL-1β
- assay.info: Biacore

binder: XPA23 Fab, heavy chain G103R (Fab, V domains shown) VH: EVQLLESGGGLVQPGGSLRLSCAASGFTFSKYFMFWVRQAPGKGLEWVSVISPSGGMTRYADSVKGRFTISRDNSKNTLYLQMNSLRAEDTAVYYCARVGYGRNSDYWGQGTLVTVSS VL: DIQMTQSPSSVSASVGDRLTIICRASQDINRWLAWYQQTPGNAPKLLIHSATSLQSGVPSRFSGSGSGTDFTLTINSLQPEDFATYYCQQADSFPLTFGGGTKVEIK
binding result: no binding
--
binder: XPA23 Fab, heavy chain P53D (Fab, V domains shown) VH: EVQLLESGGGLVQPGGSLRLSCAASGFTFSKYFMFWVRQAPGKGLEWVSVISDSGGMTRYADSVKGRFTISRDNSKNTLYLQMNSLRAEDTAVYYCARVGYGGNSDYWGQGTLVTVSS VL: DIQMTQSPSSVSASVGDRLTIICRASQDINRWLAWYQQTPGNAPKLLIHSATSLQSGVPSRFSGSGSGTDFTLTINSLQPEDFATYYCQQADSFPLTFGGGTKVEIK
binding result: no binding

Data provenance: patent US20110118131A1
